- EXPERIMENTAL PROTOCOL: yeast display, Sf9 membrane polyspecificity reagent, FACS + sequencing; frameworks hold sequencing errors
TEST READOUT: polyreactivity (PSR sort gate)

Please review the following examples before continuing.
{"columns": ["POLYMER SEQUENCE", "polyreactivity (PSR sort gate)"],
 "data": [
  ["QVQLVESGGGLVQAGGSLRLSCAASGRTFSPYAMAWYRQAPGKEREFVAAIRVRGGSTYYADSVKGRFTISRDNAKNTVYLQMNSLKPEDTAVYYCNAQYLVYNGYPYLYDYWGQGTQVTVSS", "high polyreactivity"],
  ["QVQLVESGGGLVQAGGSLRLSCAASGRIFDPYAMGWYRQAPGKERELVAAIDWSDGGTYYADSVKGRFTISRDNAKNTVYLQMNSLKPEDTAVYYCAADLLDISYYDGMDYWGQGTQVTVSS", "low polyreactivity"],
  ["QVQLVESGGGLVQAGGSLRLSCAASGRTFGYYAMGGYRQAPGKERELVAGIRSSGGSTYYADSVKGRFTISRDHAKNTVYLKMNSLIPEDTAVYYCAARLRSYHYRYGYDYWGQGTQVTVSS", "high polyreactivity"],
  ["QVQLVESGGGLVQAGGSLRLSCAASGSILAYNAMGWYRQAPGKERELVASISKSGSSTYADSVKGRFTISRDNAKNTVYLQMNSLNPEDTAVYYCNARYYFSYYAFDYWGQGTQVTVSS", "low polyreactivity"]
]}

Continue with the next sequence.
The sequence listed as QVQLVESGGGLVQAGGSLRLSCAASGRIFGHYAMGWYRQAPGKERELVAAISQSGTNTYYADSVKGRFTISRDNAKNTVYLQMNSLKPEDTAVYYCAAKPPRRYQLMDYWGQGTKVTVSS has a reported polyreactivity (PSR sort gate) of high polyreactivity
